Target: human SOS1 (loading of human K-Ras^G12C-GDP with fluorescent GTP-analog) (Homo sapiens)
Experiment: Biochemical assay 3: K-Ras^G12C activation assay by hSOS1 (HTRF)
Conditions: read-out: Assay 3 (KRAS-Activation by SOS no GTP) activity expressed as % inhibition at 20 μM; no GTP; at 20 μM
Here the recorded inhibition at 20 µM is given for each entry.
Reported endpoint: inhibition at 20 µM (%)

- Compound: "COc1cc2nc(C)nc(NC(C)c3ccc(-c4cc(C)n(C)c4C#N)s3)c2cc1OC (stereo not drawn)"
  Reported endpoint: "inhibition at 20 µM"
  Units symbol: "%"
  Recorded measurement: 36
- Compound: "COc1cc2nc(C)nc(NC(C)c3ccc(-c4cccc5sc(C(N)=O)c(N)c45)s3)c2cc1OC (stereo not drawn)"
  Reported endpoint: "inhibition at 20 µM"
  Units symbol: "%"
  Recorded measurement: 43
- Compound: "COc1cc2nc(C)nc(N[C@@H](C)c3ccc(-c4ccc5c(c4)OCO5)s3)c2cc1OC (stereo in doubt)"
  Reported endpoint: "inhibition at 20 µM"
  Units symbol: "%"
  Recorded measurement: 35

====

pIC50 values, listed per item
Target: human SOS1 (nucleotide exchange of K-Ras^G12C) (Homo sapiens, UniProt Q07889)
Assay: Biochemical assay 2: K-Ras^G12C activation assay by hSOS1 at high GTP concentration (HTRF)
Conditions: high GTP; read-out: Assay 2 (KRAS-Activation by SOS high GTP) activity expressed as IC50
pIC50: −log10 of the molar value.

- Compound: "COc1cc2nc(C)nc(N[C@H](C)c3cccc(-c4ccc5[nH]ccc5c4)c3)c2cc1OC"
  pIC50: 6.12
- Compound: "COc1cc2nc(C)nc(N[C@@H](C)c3ccc(-c4cc(N)ccc4C)s3)c2cc1OC (racemic)"
  pIC50: 5.82
- Compound: "COc1cc2nc(C)nc(N[C@H](C)c3cccc(-c4ccn[nH]4)c3)c2cc1OC [Example 337]"
  pIC50: 6.09
- Compound: "CCNCc1ccccc1-c1ccc(C(C)Nc2nc(C)nc3cc(OC)c(OC)cc23)s1 (stereo not shown)"
  pIC50: 7.21
- Compound: "COc1cc2nc(C)nc(NC(C)c3ccc(-c4ccccc4CN(C)C)s3)c2cc1OC (stereo not shown)"
  pIC50: 7.36
- Compound: "COc1cc2nc(C)nc(NC(C)c3cc(-c4cnc5n4CCC5)cs3)c2cc1OC (stereo not shown)"
  pIC50: 5.82
- Compound: "COc1cc2nc(C)nc(NC(C)c3csc(-c4ccc(F)cc4CN)c3)c2cc1OC (stereo not shown)"
  pIC50: 6.50
- Compound: "COc1cc2nc(C)nc(NC(C)c3ccc(-c4ccccc4CN)s3)c2cc1OC (stereo not shown)"
  pIC50: 7.13
- Compound: "Cc1nc(N[C@H](C)c2cccc3ccccc23)c2ccccc2n1"
  pIC50: 5.48
- Compound: "COc1cc2nc(C)nc(N[C@@H](C)c3ccc(-c4ccccc4S(=O)(=O)N(C)C)s3)c2cc1OC (racemic)"
  pIC50: 5.43
- Compound: "COc1cc2nc(C)nc(N[C@H](C)c3cccc(-c4cn[nH]c4)c3)c2cc1OCc1ccccc1"
  pIC50: 5.92
- Compound: "COc1cc2nc(C)nc(NC(C)c3cccc4ccoc34)c2cc1OC (stereo not shown)"
  pIC50: 6.61
- Compound: "COc1cc2nc(C)nc(N[C@H](C)c3cccc(-c4ccc5c(c4)OCO5)c3)c2cc1OC"
  pIC50: 5.96
